test: aqueous solubility; type: physicochemical; conditions: aqueous buffer; in pH 4 buffer
Where a name gives a salt, the structure may show the parent alone.
quantityName: solubility

compound: c1cnc2cc3c(cc2n1)C1CNCC3C1 [anhydrous succinate salt]
measured: > 10000 µg/mL

====

assay: aqueous solubility; assay type: physicochemical; conditions: aqueous buffer; in pH 10 buffer
Counter-ions that a name gives are not always drawn.
quantityName: solubility

compound: c1cnc2cc3c(cc2n1)C1CNCC3C1 [anhydrous succinate salt]
measured: > 10 mg/mL

====

test: solubility in various solvents; format: physicochemical; conditions: organic solvent or mixture; in hexane
Where a name gives a salt, the structure may show the parent alone.

compound: c1cnc2cc3c(cc2n1)C1CNCC3C1 [anhydrous succinate salt]
solubility: < 10 µg/mL

These entries and their values trace back to patent US6794388B2.
